System: APC (303–739) (Homo sapiens, UniProt P25054)
Sequence (P25054 303-739): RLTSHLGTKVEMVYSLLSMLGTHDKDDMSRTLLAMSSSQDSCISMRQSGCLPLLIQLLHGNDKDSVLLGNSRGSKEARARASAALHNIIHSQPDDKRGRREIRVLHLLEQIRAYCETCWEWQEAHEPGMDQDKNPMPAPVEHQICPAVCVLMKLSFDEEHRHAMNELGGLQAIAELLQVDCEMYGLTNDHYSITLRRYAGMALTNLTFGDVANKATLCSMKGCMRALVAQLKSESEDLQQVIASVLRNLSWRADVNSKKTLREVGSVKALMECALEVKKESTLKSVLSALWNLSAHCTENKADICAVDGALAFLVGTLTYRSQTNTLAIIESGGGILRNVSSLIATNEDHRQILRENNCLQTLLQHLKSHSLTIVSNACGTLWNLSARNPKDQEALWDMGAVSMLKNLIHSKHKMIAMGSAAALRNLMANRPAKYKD
Test Method Notes: FP competitive assay using tracer 7
Type: binding
Particulars: tracer 7; mean of three repeats; read-out: IC50 mean
Protocol: FITC-labeled tracer peptides were obtained from Changzhou Kanglong Biotech Ltd. (Changzhou, Jiangsu, China). […]. The FP signal changes upon tracer binding were measured after 1.5 h of incubation using a Synergy neo microplate reader (BioTek Instruments, Inc.) and plotted against the protein concentration. […] The FP signals were measured after 1.5 h of incubation at room temperature using a Synergy neo microplate reader. […]
Where a SMILES comes first, the peptide text is derived from it. [ ]: non-standard residue; d: D form. The star is where a group is joined. Phe(4-tBu) = CC(C)(C)c1ccc(C[C@H](N)C(=O)O)cc1; Benzoyl(4-OMe) = COc1ccc(C(=O)*)cc1
Kindly apply the following: Yes if IC50 is less than 50 nM, No in every other case.

Hello, I'm reviewing records and need to know if IC50 of COc1ccc(C(=O)N[C@@H](C)C(=O)NCC(=O)N[C@@H](CCC(=O)O)C(=O)N[C@@H](CO)C(=O)N[C@@H](CC(C)C)C(=O)N[C@@H](Cc2ccc(O)cc2)C(=O)N[C@@H](Cc2ccc(C(C)(C)C)cc2)C(N)=O)cc1 [MAI-522] ({Benzoyl(4-OMe)}-AGESLY[Phe(4-tBu)]-NH2) is below 50 nM. Could you check? No
